Where these numbers come from: patent US10118935B2

Recorded measurements of CC50, one per entry
# Test system: TK-10
Give the number; µM is assumed, so skip it.

C=C1C(=O)O[C@H]2[C@H]1CC/C(COC(=O)CCC(=O)NCCCCCCCCNC(=O)CCC(=O)OC/C1=C/CC[C@@]3(C)O[C@H]3[C@H]3OC(=O)C(=C)[C@@H]3CC1)=C\CC[C@@]1(C)O[C@@H]21
7.46

Lookup result for C=C1C(=O)O[C@H]2[C@H]1CC/C(COC(=O)CCC(=O)NCCCCCCCCCNC(=O)CCC(=O)OC/C1=C/CC[C@@]3(C)O[C@H]3[C@H]3OC(=O)C(=C)[C@@H]3CC1)=C\CC[C@@]1(C)O[C@@H]21 ; measured CC50: 6.02

* * *

# System: KM12
# METHOD: NCI 60 cell line five dose, Colon Cancer
# CONDITION_NOTES: read-out: LC50, molar
ATTRIBUTE_MEASURED: CC50 (µM)
The response must be a number in µM with no trailing unit.

// CC50 value for C=C1C(=O)O[C@H]2[C@H]1CC/C(COC(=O)NCCCCCCCCNC(=O)OC/C1=C/CC[C@@]3(C)O[C@H]3[C@H]3OC(=O)C(=C)[C@@H]3CC1)=C\CC[C@@]1(C)O[C@@H]21 : 7.49

* * *

# Tested on: DU-145
# METHOD: NCI 60 cell line five dose, Prostate Cancer
# CONDITION_NOTES: read-out: LC50, molar
ATTRIBUTE_MEASURED: CC50 (µM)
Give the value, in units of µM, as a plain number.

Reported CC50 ( C=C1C(=O)O[C@H]2[C@H]1CC/C(COC(=O)NCCCCCCCCNC(=O)OC/C1=C/CC[C@@]3(C)O[C@H]3[C@H]3OC(=O)C(=C)[C@@H]3CC1)=C\CC[C@@]1(C)O[C@@H]21 ) = 4.81

* * *

# Test system: SK-MEL-28
# METHOD: NCI 60 cell line five dose, Melanoma
# CONDITION_NOTES: read-out: LC50; SK-MEL-28
ATTRIBUTE_MEASURED: CC50 (µM)
Enter your answer as a number in µM; do not include the unit.

Notebook: C=C1C(=O)O[C@H]2[C@H]1CC/C(COC(=O)NCCCCCNC(=O)OC/C1=C/CC[C@@]3(C)O[C@H]3[C@H]3OC(=O)C(=C)[C@@H]3CC1)=C\CC[C@@]1(C)O[C@@H]21 , CC50 read as 12.6

* * *

# Tested on: UACC-62
# METHOD: NCI 60 cell line five dose, Melanoma
Quick reference for TGI among some compounds
Lab book: enter the figure in µM, no units written.

C=C1C(=O)O[C@H]2[C@H]1CC/C(COC(=O)NCCCCCNC(=O)OC/C1=C/CC[C@@]3(C)O[C@H]3[C@H]3OC(=O)C(=C)[C@@H]3CC1)=C\CC[C@@]1(C)O[C@@H]21
3.16
C=C1C(=O)O[C@H]2[C@H]1CC/C(COC(=O)NCCCCNC(=O)OC/C1=C/CC[C@@]3(C)O[C@H]3[C@H]3OC(=O)C(=C)[C@@H]3CC1)=C\CC[C@@]1(C)O[C@@H]21
2.5
C=C1C(=O)O[C@H]2[C@H]1CC/C(COC(=O)CCC(=O)NCCCCCCCCCNC(=O)CCC(=O)OC/C1=C/CC[C@@]3(C)O[C@H]3[C@H]3OC(=O)C(=C)[C@@H]3CC1)=C\CC[C@@]1(C)O[C@@H]21
3.78

Next, consider the following compound.
The compound C=C1C(=O)O[C@H]2[C@H]1CC/C(COC(=O)CCC(=O)NCCCCCCCCNC(=O)CCC(=O)OC/C1=C/CC[C@@]3(C)O[C@H]3[C@H]3OC(=O)C(=C)[C@@H]3CC1)=C\CC[C@@]1(C)O[C@@H]21 , when measured on UACC-62, yielded TGI of 4.20

* * *

# Test system: HT29
# METHOD: NCI 60 cell line five dose, Colon Cancer
# CONDITION_NOTES: read-out: LC50, molar
ATTRIBUTE_MEASURED: CC50
Kindly write the number and append the unit.

Per the reported HT29 data, C=C1C(=O)O[C@H]2[C@H]1CC/C(COC(=O)NCCCCCCCCNC(=O)OC/C1=C/CC[C@@]3(C)O[C@H]3[C@H]3OC(=O)C(=C)[C@@H]3CC1)=C\CC[C@@]1(C)O[C@@H]21 [JVM 3-62] has CC50 of 2270 nM

* * *

# System: LOX IMVI
# METHOD: NCI 60 cell line five dose, Melanoma
Items are presented alongside their recorded GI50.
Number plus unit, in that order.

Looking up C=C1C(=O)O[C@H]2[C@H]1CC/C(COC(=O)CCC(=O)NCCCCCCCCNC(=O)CCC(=O)OC/C1=C/CC[C@@]3(C)O[C@H]3[C@H]3OC(=O)C(=C)[C@@H]3CC1)=C\CC[C@@]1(C)O[C@@H]21 , I see its GI50 listed as 1370 nM

* * *

# TGI values compiled below
# System: A498
# METHOD: NCI 60 cell line five dose, Renal Cancer
Provide the reading as a plain figure in µM.

C=C1C(=O)O[C@H]2[C@H]1CC/C(COC(=O)CCC(=O)NCCCCCCCCCNC(=O)CCC(=O)OC/C1=C/CC[C@@]3(C)O[C@H]3[C@H]3OC(=O)C(=C)[C@@H]3CC1)=C\CC[C@@]1(C)O[C@@H]21 [JVM 2-92]
8.30

compound C=C1C(=O)O[C@H]2[C@H]1CC/C(COC(=O)CCC(=O)NCCCCCCCCNC(=O)CCC(=O)OC/C1=C/CC[C@@]3(C)O[C@H]3[C@H]3OC(=O)C(=C)[C@@H]3CC1)=C\CC[C@@]1(C)O[C@@H]21 [JVM 2-87] , TGI observed: 20.8

// TGI lookup, compound = C=C1C(=O)O[C@H]2[C@H]1CC/C(COC(=O)NCCCCNC(=O)OC/C1=C/CC[C@@]3(C)O[C@H]3[C@H]3OC(=O)C(=C)[C@@H]3CC1)=C\CC[C@@]1(C)O[C@@H]21 [JVM 3-54] , result: 18.9

Reported TGI of C=C1C(=O)O[C@H]2[C@H]1CC/C(COC(=O)NCCCCCNC(=O)OC/C1=C/CC[C@@]3(C)O[C@H]3[C@H]3OC(=O)C(=C)[C@@H]3CC1)=C\CC[C@@]1(C)O[C@@H]21 [JVM 2-76] : 19.4

* * *

Catalogue of CC50 readings, one per entry.
# Test system: SNB-75
# METHOD: NCI 60 cell line five dose, CNS Cancer
# CONDITION_NOTES: read-out: LC50
Write the number in µM without appending the unit.

C=C1C(=O)O[C@H]2[C@H]1CC/C(COC(=O)NCCCCCNC(=O)OC/C1=C/CC[C@@]3(C)O[C@H]3[C@H]3OC(=O)C(=C)[C@@H]3CC1)=C\CC[C@@]1(C)O[C@@H]21
33.8

What the record says about C=C1C(=O)O[C@H]2[C@H]1CC/C(COC(=O)NCCCCNC(=O)OC/C1=C/CC[C@@]3(C)O[C@H]3[C@H]3OC(=O)C(=C)[C@@H]3CC1)=C\CC[C@@]1(C)O[C@@H]21 : CC50 is 66.3

* * *

# System: RXF 393
# METHOD: NCI 60 cell line five dose, Renal Cancer
# CONDITION_NOTES: read-out: LC50, molar
ATTRIBUTE_MEASURED: CC50
State the result as a value with its unit after it.

So for C=C1C(=O)O[C@H]2[C@H]1CC/C(COC(=O)NCCCCCCCCNC(=O)OC/C1=C/CC[C@@]3(C)O[C@H]3[C@H]3OC(=O)C(=C)[C@@H]3CC1)=C\CC[C@@]1(C)O[C@@H]21 [JVM 3-62] , the logged CC50 turned out to be 640 nM

* * *

# Test system: A549/ATCC
# METHOD: NCI 60 cell line five dose, Non-Small Cell Lung Cancer
Measured GI50 accompanies every entry in the list below.
A number alone suffices; assume µM.

C=C1C(=O)O[C@H]2[C@H]1CC/C(COC(=O)NCCCCCNC(=O)OC/C1=C/CC[C@@]3(C)O[C@H]3[C@H]3OC(=O)C(=C)[C@@H]3CC1)=C\CC[C@@]1(C)O[C@@H]21 [JVM 2-76]
14.9
C=C1C(=O)O[C@H]2[C@H]1CC/C(COC(=O)NCCCCNC(=O)OC/C1=C/CC[C@@]3(C)O[C@H]3[C@H]3OC(=O)C(=C)[C@@H]3CC1)=C\CC[C@@]1(C)O[C@@H]21 [JVM 3-54]
8.02
C=C1C(=O)O[C@H]2[C@H]1CC/C(COC(=O)CCC(=O)NCCCCCCCCCNC(=O)CCC(=O)OC/C1=C/CC[C@@]3(C)O[C@H]3[C@H]3OC(=O)C(=C)[C@@H]3CC1)=C\CC[C@@]1(C)O[C@@H]21 [JVM 2-92]
13.8

Shifting focus to the compound that follows.
response.value for C=C1C(=O)O[C@H]2[C@H]1CC/C(COC(=O)CCC(=O)NCCCCCCCCNC(=O)CCC(=O)OC/C1=C/CC[C@@]3(C)O[C@H]3[C@H]3OC(=O)C(=C)[C@@H]3CC1)=C\CC[C@@]1(C)O[C@@H]21 [JVM 2-87] (field: GI50) = 18.5
